Ratio values by entry
molecular target: Ryanodine receptor 1 (Oryctolagus cuniculus) (UniProt P11716); assay: Displacement of [3H]ryanodine from Ca2+-ryanodine receptor in Oryctolagus cuniculus (rabbit) skeletal muscle sarcoplasmic reticulum after 2 hr by competitive inhibition assay relative to ryanodine
Sequence (P11716 whole entry): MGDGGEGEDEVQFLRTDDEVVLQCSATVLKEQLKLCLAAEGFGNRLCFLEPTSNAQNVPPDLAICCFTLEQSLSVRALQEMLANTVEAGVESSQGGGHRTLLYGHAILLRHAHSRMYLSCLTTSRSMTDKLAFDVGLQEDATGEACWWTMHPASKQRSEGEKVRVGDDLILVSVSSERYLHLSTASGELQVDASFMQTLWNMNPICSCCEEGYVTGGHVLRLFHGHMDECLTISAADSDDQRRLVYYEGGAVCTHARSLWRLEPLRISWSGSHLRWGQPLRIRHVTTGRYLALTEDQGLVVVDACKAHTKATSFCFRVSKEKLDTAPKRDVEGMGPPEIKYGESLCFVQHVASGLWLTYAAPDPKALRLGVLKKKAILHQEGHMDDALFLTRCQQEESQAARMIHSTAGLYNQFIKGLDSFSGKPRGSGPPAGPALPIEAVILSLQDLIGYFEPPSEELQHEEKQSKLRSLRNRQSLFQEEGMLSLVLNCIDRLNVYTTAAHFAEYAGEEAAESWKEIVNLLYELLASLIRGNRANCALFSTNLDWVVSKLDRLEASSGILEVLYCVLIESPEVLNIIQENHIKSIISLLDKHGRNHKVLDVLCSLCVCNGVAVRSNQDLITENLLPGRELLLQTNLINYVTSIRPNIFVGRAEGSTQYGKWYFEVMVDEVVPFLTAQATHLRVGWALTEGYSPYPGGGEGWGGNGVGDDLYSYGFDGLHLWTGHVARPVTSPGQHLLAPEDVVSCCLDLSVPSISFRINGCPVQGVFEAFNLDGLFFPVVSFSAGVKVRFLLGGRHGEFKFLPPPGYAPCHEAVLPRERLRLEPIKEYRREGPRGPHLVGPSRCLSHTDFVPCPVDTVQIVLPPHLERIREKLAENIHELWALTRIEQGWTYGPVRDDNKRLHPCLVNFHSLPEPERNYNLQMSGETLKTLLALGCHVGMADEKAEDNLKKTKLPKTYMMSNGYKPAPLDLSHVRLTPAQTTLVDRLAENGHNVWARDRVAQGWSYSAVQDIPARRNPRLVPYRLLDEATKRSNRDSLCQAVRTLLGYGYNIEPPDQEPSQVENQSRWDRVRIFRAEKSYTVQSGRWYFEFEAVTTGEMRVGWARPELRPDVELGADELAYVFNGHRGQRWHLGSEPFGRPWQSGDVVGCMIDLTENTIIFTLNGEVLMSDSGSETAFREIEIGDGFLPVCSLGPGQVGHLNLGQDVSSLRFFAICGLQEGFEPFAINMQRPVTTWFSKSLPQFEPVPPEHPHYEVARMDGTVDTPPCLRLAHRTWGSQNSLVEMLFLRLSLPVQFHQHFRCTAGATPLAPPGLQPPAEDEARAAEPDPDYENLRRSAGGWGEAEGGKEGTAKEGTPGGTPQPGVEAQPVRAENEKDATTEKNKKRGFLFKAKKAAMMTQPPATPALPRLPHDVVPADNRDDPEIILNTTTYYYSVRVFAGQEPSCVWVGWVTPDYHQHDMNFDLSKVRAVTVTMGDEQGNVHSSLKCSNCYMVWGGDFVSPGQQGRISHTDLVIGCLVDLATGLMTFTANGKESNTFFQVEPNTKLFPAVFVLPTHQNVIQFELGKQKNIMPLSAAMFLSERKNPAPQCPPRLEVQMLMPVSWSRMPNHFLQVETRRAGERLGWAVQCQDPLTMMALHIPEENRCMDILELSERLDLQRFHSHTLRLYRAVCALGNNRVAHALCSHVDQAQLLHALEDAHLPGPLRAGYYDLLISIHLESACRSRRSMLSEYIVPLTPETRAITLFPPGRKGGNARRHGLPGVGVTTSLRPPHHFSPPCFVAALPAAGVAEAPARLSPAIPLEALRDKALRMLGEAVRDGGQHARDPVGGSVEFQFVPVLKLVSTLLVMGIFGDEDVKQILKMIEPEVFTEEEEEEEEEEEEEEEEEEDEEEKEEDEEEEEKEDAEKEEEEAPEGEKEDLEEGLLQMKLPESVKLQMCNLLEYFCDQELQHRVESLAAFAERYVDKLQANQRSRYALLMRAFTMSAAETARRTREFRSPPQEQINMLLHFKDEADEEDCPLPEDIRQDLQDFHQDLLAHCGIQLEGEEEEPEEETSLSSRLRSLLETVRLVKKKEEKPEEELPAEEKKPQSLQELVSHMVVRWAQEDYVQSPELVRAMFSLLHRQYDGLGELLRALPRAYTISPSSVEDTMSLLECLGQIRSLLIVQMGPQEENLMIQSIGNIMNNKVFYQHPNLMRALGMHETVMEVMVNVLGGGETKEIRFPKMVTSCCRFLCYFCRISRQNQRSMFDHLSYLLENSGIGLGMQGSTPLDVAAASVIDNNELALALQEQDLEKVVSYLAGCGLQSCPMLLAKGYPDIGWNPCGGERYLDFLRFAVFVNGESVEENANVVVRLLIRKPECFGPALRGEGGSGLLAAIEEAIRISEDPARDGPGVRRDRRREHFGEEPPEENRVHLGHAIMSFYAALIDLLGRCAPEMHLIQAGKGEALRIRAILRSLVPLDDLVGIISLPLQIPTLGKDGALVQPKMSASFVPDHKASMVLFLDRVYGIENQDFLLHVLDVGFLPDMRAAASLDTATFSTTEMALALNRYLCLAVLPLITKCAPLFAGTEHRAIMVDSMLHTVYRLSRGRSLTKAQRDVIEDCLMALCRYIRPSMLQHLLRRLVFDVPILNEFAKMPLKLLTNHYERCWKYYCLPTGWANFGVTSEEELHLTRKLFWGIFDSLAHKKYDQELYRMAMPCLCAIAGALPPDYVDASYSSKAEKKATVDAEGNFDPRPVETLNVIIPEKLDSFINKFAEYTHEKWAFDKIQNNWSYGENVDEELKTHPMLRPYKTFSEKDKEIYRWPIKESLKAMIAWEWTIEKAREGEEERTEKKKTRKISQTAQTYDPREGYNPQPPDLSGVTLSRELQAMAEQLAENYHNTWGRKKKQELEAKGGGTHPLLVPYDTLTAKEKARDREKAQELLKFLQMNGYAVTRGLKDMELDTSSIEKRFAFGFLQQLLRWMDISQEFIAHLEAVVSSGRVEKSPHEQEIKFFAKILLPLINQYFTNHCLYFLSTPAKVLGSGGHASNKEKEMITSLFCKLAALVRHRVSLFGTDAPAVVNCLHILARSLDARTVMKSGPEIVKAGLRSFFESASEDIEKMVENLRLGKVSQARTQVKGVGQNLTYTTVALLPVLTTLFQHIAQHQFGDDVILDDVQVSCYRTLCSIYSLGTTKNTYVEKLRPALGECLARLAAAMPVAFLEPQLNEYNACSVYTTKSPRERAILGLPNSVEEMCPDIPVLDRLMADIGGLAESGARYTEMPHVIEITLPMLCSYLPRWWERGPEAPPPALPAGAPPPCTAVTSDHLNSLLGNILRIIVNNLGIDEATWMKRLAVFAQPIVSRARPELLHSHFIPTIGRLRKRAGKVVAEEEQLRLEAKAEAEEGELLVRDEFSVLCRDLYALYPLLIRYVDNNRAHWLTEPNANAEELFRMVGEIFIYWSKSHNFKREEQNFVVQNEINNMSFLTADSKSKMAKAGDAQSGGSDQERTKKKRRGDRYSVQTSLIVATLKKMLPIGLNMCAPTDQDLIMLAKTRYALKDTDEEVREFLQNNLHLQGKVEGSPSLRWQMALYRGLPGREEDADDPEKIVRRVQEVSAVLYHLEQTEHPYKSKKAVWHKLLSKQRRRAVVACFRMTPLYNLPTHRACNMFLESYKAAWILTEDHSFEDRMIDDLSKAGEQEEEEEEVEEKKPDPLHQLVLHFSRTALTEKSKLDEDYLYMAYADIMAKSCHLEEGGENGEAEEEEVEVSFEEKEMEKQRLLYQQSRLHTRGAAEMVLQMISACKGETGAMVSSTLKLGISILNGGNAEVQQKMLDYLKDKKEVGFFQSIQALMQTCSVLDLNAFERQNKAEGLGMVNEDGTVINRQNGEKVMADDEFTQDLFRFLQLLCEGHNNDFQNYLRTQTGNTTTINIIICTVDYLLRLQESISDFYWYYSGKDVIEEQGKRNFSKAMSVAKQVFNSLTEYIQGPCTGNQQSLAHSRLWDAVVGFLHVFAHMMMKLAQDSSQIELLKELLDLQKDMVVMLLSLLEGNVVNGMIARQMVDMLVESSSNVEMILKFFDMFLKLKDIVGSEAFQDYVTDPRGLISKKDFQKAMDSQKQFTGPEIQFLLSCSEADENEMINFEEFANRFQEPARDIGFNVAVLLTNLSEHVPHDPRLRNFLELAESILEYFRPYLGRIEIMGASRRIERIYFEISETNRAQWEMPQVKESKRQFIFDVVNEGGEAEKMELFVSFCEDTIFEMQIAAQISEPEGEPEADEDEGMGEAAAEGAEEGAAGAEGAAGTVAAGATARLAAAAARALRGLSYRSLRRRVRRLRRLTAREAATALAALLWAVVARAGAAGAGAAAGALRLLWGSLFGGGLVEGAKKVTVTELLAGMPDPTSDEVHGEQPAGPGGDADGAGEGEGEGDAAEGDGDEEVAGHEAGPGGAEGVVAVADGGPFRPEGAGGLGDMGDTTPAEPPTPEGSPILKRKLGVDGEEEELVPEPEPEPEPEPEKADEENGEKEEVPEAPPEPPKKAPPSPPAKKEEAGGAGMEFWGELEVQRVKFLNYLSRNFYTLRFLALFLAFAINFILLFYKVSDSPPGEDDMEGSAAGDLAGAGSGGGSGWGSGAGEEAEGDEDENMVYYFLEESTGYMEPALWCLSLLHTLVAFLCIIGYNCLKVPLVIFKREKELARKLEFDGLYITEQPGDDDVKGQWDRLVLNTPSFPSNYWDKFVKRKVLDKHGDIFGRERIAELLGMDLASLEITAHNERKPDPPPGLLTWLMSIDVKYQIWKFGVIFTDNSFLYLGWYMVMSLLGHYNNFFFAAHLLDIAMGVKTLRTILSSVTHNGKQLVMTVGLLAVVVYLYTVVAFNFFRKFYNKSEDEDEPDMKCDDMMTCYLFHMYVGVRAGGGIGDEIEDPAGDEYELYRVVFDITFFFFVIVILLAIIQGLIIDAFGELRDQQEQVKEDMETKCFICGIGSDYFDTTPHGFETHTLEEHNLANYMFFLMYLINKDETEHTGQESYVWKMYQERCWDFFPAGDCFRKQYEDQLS
metric: Ratio

| compound | observed |
| --- | --- |
| C=C1CC[C@]2(O)[C@]3(C)C[C@]4(O)O[C@@]2([C@@H]1O)[C@]1(O)O[C@@]3(NNC(N)=O)[C@H](OC(=O)c2ccc[nH]2)[C@](O)(C(C)C)[C@@]14C | 10 |
| CC(C)[C@@]1(O)[C@@H](OC(=O)c2ccc[nH]2)C(=O)[C@@]2(C)C[C@]3(O)O[C@]4(C(=O)[C@]13C)[C@H](O)[C@@H](C)CC[C@@]42O [4,12-SECO-4,12-DIOXORYANODIN] | 1.6 |
| CC(C)[C@@]1(O)[C@@H](OC(=O)c2ccc[nH]2)[C@]2(NOCc3ccccc3)O[C@@]3(O)[C@]45O[C@@](O)(C[C@@]2(C)[C@@]4(O)CC[C@H](C)[C@H]5O)[C@]31C | 13 |

###

target: UniProt:P11716; test: Displacement of [3H]ryanodine from Ca2+-ryanodine receptor in Oryctolagus cuniculus (rabbit) skeletal muscle sarcoplasmic reticulum after 1 hr by competitive inhibition assay in presence of ATP relative to ryanodine
metric: Ratio

| entry_smiles | experimental_target | metric | observed |
| --- | --- | --- | --- |
| CC(C)[C@@]1(O)[C@@H](OC(=O)c2ccc[nH]2)C(=O)[C@@]2(C)C[C@]3(O)O[C@]4(C(=O)[C@]13C)[C@H](O)[C@@H](C)CC[C@@]42O | UniProt:P11716 | Ratio | 1.8 |
| CC(C)[C@@]1(O)[C@@H](OC(=O)c2ccc[nH]2)C(=O)[C@@]2(C)C[C@]3(O)O[C@]4(/C(=N\O)[C@]13C)[C@H](O)[C@@H](C)CC[C@@]42O | UniProt:P11716 | Ratio | 3.1 |
| CC(C)[C@@]1(O)[C@@H](OC(=O)c2ccc[nH]2)[C@]2(NO)O[C@H]3[C@]45O[C@@](O)(C[C@@]2(C)[C@@]4(O)CC[C@H](C)[C@H]5O)[C@]31C | UniProt:P11716 | Ratio | 67 |
| CC(C)[C@@]1(O)[C@@H](OC(=O)c2ccc[nH]2)[C@@H](O)[C@@]2(C)C[C@]3(O)O[C@@]4([C@H](O)[C@@H](C)CC[C@@]42O)[C@@H](O)[C@]13C | UniProt:P11716 | Ratio | 5.3 |
| C=C1CC[C@]2(O)[C@]3(C)C[C@]4(O)O[C@@]2([C@@H]1O)[C@]1(O)O[C@@]3(NNC(N)=O)[C@H](OC(=O)c2ccc[nH]2)[C@](O)(C(C)C)[C@@]14C | UniProt:P11716 | Ratio | 6.6 |
| CC(C)[C@@]1(O)[C@@H](OC(=O)c2ccc[nH]2)[C@]2(O)O[C@@]3(NO)[C@]45O[C@@](O)(C[C@@]2(C)[C@@]4(O)CC[C@H](C)[C@H]5O)[C@]31C | UniProt:P11716 | Ratio | 11 |
| CC(C)[C@@]1(O)[C@@H](OC(=O)c2ccc[nH]2)/C(=N/OCc2ccccc2)[C@@]2(C)C[C@]3(O)O[C@]4(C(=O)[C@]13C)[C@H](O)[C@@H](C)CC[C@@]42O | UniProt:P11716 | Ratio | 2.1 |
| C=C1CC[C@]2(O)[C@]3(C)C[C@]4(O)O[C@@]2([C@@H]1O)[C@]1(/N=N/c2ccccc2)O[C@@]3(O)[C@H](OC(=O)c2ccc[nH]2)[C@](O)(C(C)C)[C@@]14C | UniProt:P11716 | Ratio | 6.3 |
| C=C1CC[C@]2(O)[C@]3(C)C[C@]4(O)O[C@@]2([C@@H]1O)[C@]1(NNc2ccccc2)O[C@@]3(O)[C@H](OC(=O)c2ccc[nH]2)[C@](O)(C(C)C)[C@@]14C | UniProt:P11716 | Ratio | 3 |
| CC(C)[C@@]1(O)[C@@H](OC(=O)c2ccc[nH]2)[C@]2(NO)O[C@@]3(O)[C@]45O[C@@](O)(C[C@@]2(C)[C@@]4(O)CC[C@H](C)[C@H]5O)[C@]31C | UniProt:P11716 | Ratio | 29 |
| CC(C)[C@@]1(O)[C@@H](OC(=O)c2ccc[nH]2)/C(=N/O)[C@@]2(C)C[C@]3(O)O[C@]4(C(=O)[C@]13C)[C@H](O)[C@@H](C)CC[C@@]42O | UniProt:P11716 | Ratio | 0.88 |

###

Ratio values by entry
biological target: Ryanodine receptor 3 (Mus musculus); test: Binding affinity to ryanodine receptor in Mus musculus albino Swiss-Webster (mouse) brain relative to ryanodine

| entry_smiles | Ratio |
| --- | --- |
| CC(C)[C@@]1(O)[C@@H](OC(=O)c2ccc[nH]2)[C@@]2(O)[C@@]3(C)C[C@]4(O)O[C@@]5([C@H](O)[C@@H](CSCCO)CC[C@]35O)[C@@]2(O)[C@]14C | 0.86 |
| CC(C)[C@@]1(O)[C@@H](OC(=O)c2ccc[nH]2)[C@]2(NO)O[C@H]3[C@]45O[C@@](O)(C[C@@]2(C)[C@@]4(O)CC[C@H](C)[C@H]5O)[C@]31C | 43 |
| CCCSC[C@H]1CC[C@]2(O)[C@]3(C)C[C@]4(O)O[C@@]2([C@@H]1O)[C@]1(O)[C@@]3(O)[C@H](OC(=O)c2ccc[nH]2)[C@](O)(C(C)C)[C@@]14C | 0.88 |
| CO/N=C1/[C@H](OC(=O)c2ccc[nH]2)[C@](O)(C(C)C)[C@@]2(C)C(=O)[C@]34O[C@@]2(O)C[C@@]1(C)[C@@]3(O)CC[C@H](C)[C@H]4O | 0.7 |
| CON[C@@]12O[C@H]3[C@]45O[C@@](O)(C[C@@]1(C)[C@@]4(O)CC[C@H](C)[C@H]5O)[C@@]3(C)[C@@](O)(C(C)C)[C@H]2OC(=O)c1ccc[nH]1 | 28 |

###

target: Ryanodine receptor 3 (Mus musculus) (UniProt A2AGL3); experiment: Binding affinity to ryanodine receptor in Mus musculus albino Swiss-Webster (mouse) brain relative to ryanodine
Ratio values by entry

| compound | Ratio |
| --- | --- |
| C=C1CC[C@@]2(O)[C@]3(O[C@@]4(O)C[C@]2(C)C(=O)[C@H](OC(=O)c2ccc[nH]2)[C@](O)(C(C)C)[C@@]4(C)C3=O)[C@@H]1O [4,12-SECO-4,12-DIOXODEHYDRORYANODIN] | 1.1 |
| C=C1CC[C@]2(O)[C@]3(C)C[C@]4(O)O[C@@]2([C@@H]1O)[C@]1(/N=N/c2ccccc2)O[C@@]3(O)[C@H](OC(=O)c2ccc[nH]2)[C@](O)(C(C)C)[C@@]14C | 3.6 |
| CC(C)[C@@]1(O)[C@@H](OC(=O)c2ccc[nH]2)[C@]2(O)O[C@H]3[C@]45O[C@@](O)(C[C@@]2(C)[C@@]4(O)CC[C@H](C)[C@H]5O)[C@]31C | 54 |
| CON[C@@]12O[C@@]3(O)[C@]45O[C@@](O)(C[C@@]1(C)[C@@]4(O)CC[C@H](C)[C@H]5O)[C@@]3(C)[C@@](O)(C(C)C)[C@H]2OC(=O)c1ccc[nH]1 | 27 |
| CC(C)[C@@]1(O)[C@@H](OC(=O)c2ccc[nH]2)[C@@H](O)[C@@]2(C)C[C@]3(O)O[C@@]4([C@H](O)[C@@H](C)CC[C@@]42O)[C@@H](O)[C@]13C | 5.4 |

###

target: UniProtKB A2AGL3; assay: Binding affinity to ryanodine receptor in Mus musculus albino Swiss-Webster (mouse) brain relative to ryanodine
Threshold 2: Ratio strictly smaller gives TRUE, otherwise FALSE.

| molecule | experimental_target | label_class |
| --- | --- | --- |
| CC(C)[C@@]1(O)[C@@H](OC(=O)c2ccc[nH]2)[C@]2(NO)O[C@@]3(O)[C@]45O[C@@](O)(C[C@@]2(C)[C@@]4(O)CC[C@H](C)[C@H]5O)[C@]31C | UniProtKB A2AGL3 | FALSE |
| CC(C)[C@@]1(O)[C@@H](OC(=O)c2ccc[nH]2)[C@]2(NOCc3ccccc3)O[C@@]3(O)[C@]45O[C@@](O)(C[C@@]2(C)[C@@]4(O)CC[C@H](C)[C@H]5O)[C@]31C | UniProtKB A2AGL3 | FALSE |
| CC(C)[C@@]1(O)[C@@H](OC(=O)c2ccc[nH]2)C(=O)[C@@]2(C)C[C@]3(O)O[C@]4(/C(=N\O)[C@]13C)[C@H](O)[C@@H](C)CC[C@@]42O | UniProtKB A2AGL3 | TRUE |
| C=C1CC[C@]2(O)[C@]3(C)C[C@]4(O)O[C@@]2([C@@H]1O)[C@]1(O)[C@@]3(O)[C@H](OC(=O)c2ccc[nH]2)[C@](O)(C(C)C)[C@@]14C [DEHYDRORYANODINE] | UniProtKB A2AGL3 | FALSE |
| C=C1CC[C@]2(O)[C@]3(C)C[C@]4(O)O[C@@]2([C@@H]1O)[C@]1(O)O[C@@]3(NNc2ccccc2)[C@H](OC(=O)c2ccc[nH]2)[C@](O)(C(C)C)[C@@]14C | UniProtKB A2AGL3 | FALSE |
| CC(C)[C@@]1(O)[C@@H](OC(=O)c2ccc[nH]2)/C(=N/OCc2ccccc2)[C@@]2(C)C[C@]3(O)O[C@]4(C(=O)[C@]13C)[C@H](O)[C@@H](C)CC[C@@]42O | UniProtKB A2AGL3 | TRUE |
| CC(C)[C@@]1(O)[C@@H](OC(=O)c2ccc[nH]2)[C@]2(O)O[C@@]3(NO)[C@]45O[C@@](O)(C[C@@]2(C)[C@@]4(O)CC[C@H](C)[C@H]5O)[C@]31C | UniProtKB A2AGL3 | FALSE |
